assay: NCI Yeast Anticancer Drug Screen. Data for the mlh1 rad18 strain (AID 175); settings: S. cerevisiae mlh1 rad18 strain growth inhibition; at 50.0 µM (retest, dose inferred, filed as 5.0); stronger effect = higher value
The panel holds about 79,000 compounds, 15% with a hit somewhere; the sample as a whole holds those more often.
growth inhibition for assorted compounds
Quick note: give the figure in %, leave out the unit.

COMPOUND	OBSERVED MEASUREMENT
Oc1ccc(N(Cc2ccccc2)Cc2ccccc2)cc1	69

Item under review: N#CC(Cl)CS(=O)(=O)c1ccccc1 (centres undefined) . Reported growth inhibition? 100

I'd like to know its growth inhibition. The compound in question is NC(=S)c1cccc(OCCCOc2ccccc2)c1 30

For the compound CCC(C)(C)NCCCCCNc1cc(OC)cc2cccnc12 , what growth inhibition is on record? 16

So what does the record say about growth inhibition for COC(=O)c1ccccc1C(=O)c1cc(OC)c2c(c1OC)CCCC2 ? 24

Fill blank: measured growth inhibition of the compound CCN1/C(=C/C=C/C=C\C=C\c2sc3ccc4ccccc4c3[n+]2CC)Sc2ccc3ccccc3c21 is ____. 73

Which growth inhibition reading was recorded for the compound CCCCCCCCCCCCOc1c(Cl)cc(Cl)c(Cl)c1Cc1c(O)c(Cl)cc(Cl)c1Cl ? 87

Given the entry CCOC(=O)N(c1ccccc1)N(CC)C(=O)/C(C)=N/Nc1ccc([N+](=O)[O-])cc1 , report its measured growth inhibition. 94

Can you share its growth inhibition? I mean this compound: O=[N+]([O-])c1ccc2c(c1)CCc1ccccc1-2 89
